test: Protein binding in rat plasma; assay type: ADME, cell-free; settings: read-out: PPB (converted)
assay endpoint: fraction unbound
Response field accepts a number only; no unit should be typed.

Ask | Quick one: fraction unbound for `Cc1cc(Nc2nccc3nc(-c4c(Cl)cc(C#N)cc4Cl)[nH]c23)ncn1` ?
Reply | 0.039

###

species: Homo sapiens; experiment: Selectivity ratio of Ki for JAK2 (unknown origin) to Ki for TYK2 (unknown origin)
assay endpoint: Ratio Ki
Number only, no unit.

Solved entries (count: 5):
Cc1nc(Nc2nccc3nc(-c4c(Cl)cccc4Cl)[nH]c23)cc(N(C)C)n1	13
COc1cc(Nc2nccc3nc(-c4c(Cl)cccc4Cl)[nH]c23)ncn1	157
O=C(Nc1nccc2cc(-c3c(Cl)cccc3Cl)ccc12)C1CC1	8.3
O=C(Nc1nccc2nc(-c3c(Cl)cccc3Cl)oc12)C1CC1	103
Cn1c(-c2c(Cl)cccc2Cl)nc2c(NC(=O)C3CC3)nccc21	10

# input for lookup
Ask | Entry under review: `O=C(Nc1nccc2nc(-c3c(Cl)cccc3Cl)sc12)C1CC1` . Reported Ratio Ki?
Reply | 52

###

Biological target: Tyrosine-protein kinase JAK3 (Homo sapiens)
Sequence (P52333 whole entry): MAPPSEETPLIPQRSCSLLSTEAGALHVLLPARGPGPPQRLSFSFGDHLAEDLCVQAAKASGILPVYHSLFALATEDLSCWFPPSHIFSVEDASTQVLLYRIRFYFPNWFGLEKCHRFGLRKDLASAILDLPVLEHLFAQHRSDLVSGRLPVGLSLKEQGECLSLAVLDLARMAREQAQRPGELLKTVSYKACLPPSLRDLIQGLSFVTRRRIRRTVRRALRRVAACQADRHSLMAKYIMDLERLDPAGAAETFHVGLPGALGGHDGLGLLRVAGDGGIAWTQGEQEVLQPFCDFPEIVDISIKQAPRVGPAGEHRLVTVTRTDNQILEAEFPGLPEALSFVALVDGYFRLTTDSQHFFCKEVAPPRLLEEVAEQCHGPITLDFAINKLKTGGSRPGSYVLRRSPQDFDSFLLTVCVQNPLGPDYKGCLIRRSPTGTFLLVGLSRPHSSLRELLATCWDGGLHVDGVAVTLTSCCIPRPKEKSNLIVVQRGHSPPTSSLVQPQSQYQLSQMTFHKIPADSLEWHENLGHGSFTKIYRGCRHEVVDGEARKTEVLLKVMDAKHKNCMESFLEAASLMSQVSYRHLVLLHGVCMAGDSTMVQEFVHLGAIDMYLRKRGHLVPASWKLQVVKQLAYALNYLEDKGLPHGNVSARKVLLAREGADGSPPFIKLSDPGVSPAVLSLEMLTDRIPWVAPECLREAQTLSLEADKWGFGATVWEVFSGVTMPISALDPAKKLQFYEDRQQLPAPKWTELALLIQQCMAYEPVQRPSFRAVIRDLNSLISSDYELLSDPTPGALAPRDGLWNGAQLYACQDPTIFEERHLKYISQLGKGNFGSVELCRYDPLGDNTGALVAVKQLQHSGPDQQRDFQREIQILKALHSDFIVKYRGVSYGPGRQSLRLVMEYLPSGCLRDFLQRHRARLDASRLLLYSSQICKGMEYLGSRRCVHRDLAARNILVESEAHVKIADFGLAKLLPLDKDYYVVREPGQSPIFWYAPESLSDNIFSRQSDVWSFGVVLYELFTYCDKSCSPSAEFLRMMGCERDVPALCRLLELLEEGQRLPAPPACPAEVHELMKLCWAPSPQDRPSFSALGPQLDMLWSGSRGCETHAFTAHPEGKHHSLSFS
assay endpoint: Ki (nM)
Please state the figure in nM; there is no need to write the unit.

Ask | So what's the measured Ki for this one? `Cc1cc(Nc2nccc3nc(-c4c(Cl)cc(C#N)cc4Cl)[nH]c23)ncn1`
Reply | 58

###

Non-receptor tyrosine-protein kinase TYK2 (Homo sapiens) Ki data
Sequence (P29597 whole entry): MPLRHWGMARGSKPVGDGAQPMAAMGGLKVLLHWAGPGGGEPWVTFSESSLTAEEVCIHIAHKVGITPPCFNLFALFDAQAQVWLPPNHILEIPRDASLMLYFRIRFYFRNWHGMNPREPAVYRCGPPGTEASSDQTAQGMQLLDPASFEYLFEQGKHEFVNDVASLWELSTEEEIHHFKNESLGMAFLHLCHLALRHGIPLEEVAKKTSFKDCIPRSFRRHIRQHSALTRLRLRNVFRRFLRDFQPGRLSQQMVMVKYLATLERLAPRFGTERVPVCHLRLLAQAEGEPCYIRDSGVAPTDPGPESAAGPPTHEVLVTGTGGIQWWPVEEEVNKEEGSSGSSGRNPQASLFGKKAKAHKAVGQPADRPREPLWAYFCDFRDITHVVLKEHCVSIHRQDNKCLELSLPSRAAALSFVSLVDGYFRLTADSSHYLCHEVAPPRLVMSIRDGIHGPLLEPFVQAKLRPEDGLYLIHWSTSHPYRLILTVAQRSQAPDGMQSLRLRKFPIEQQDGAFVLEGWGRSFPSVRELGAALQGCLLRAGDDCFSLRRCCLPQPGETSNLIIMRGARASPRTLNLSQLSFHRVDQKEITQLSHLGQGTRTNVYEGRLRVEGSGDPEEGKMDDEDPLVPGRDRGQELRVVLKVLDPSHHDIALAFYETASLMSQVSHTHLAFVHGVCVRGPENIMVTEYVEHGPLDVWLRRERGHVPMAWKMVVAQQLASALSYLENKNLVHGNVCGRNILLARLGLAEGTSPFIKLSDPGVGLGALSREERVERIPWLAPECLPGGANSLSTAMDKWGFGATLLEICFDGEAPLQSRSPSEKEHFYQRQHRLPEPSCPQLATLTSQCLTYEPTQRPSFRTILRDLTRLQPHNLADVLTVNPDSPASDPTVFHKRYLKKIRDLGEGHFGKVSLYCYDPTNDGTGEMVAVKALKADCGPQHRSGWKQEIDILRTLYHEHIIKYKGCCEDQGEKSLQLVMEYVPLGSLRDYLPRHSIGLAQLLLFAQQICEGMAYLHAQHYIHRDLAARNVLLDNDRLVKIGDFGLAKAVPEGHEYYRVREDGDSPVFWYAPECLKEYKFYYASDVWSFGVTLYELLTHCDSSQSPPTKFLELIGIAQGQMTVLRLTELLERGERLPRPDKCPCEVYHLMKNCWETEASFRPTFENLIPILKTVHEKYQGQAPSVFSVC
Express your answer in nM, writing the number without its unit.

Example entries and their recorded answers appear below.
Cc1nc(Nc2nccc3nc(-c4c(Cl)cccc4Cl)[nH]c23)cc(N(C)C)n1	3.2
CNc1cc(Nc2nccc3nc(-c4c(Cl)cccc4Cl)[nH]c23)ncn1	0.5
N#Cc1cc(Cl)c(-c2nc3ccnc(Nc4cc(N)ncn4)c3[nH]2)c(Cl)c1	0.6

Moving on to another compound below.
Ask | Suppose we examine the compound `O=C(Nc1nccc2nc(-c3c(Cl)cccc3Cl)[nH]c12)C1CC1` ; what Ki value has been reported?
Reply | 1.7

###

target: Tyrosine-protein kinase JAK2 (Homo sapiens); assay: Inhibition of JAK2 (unknown origin) assessed as reduction in EPO-mediated STAT5 phosphorylation by cell based readout assay
Sequence (O60674 whole entry): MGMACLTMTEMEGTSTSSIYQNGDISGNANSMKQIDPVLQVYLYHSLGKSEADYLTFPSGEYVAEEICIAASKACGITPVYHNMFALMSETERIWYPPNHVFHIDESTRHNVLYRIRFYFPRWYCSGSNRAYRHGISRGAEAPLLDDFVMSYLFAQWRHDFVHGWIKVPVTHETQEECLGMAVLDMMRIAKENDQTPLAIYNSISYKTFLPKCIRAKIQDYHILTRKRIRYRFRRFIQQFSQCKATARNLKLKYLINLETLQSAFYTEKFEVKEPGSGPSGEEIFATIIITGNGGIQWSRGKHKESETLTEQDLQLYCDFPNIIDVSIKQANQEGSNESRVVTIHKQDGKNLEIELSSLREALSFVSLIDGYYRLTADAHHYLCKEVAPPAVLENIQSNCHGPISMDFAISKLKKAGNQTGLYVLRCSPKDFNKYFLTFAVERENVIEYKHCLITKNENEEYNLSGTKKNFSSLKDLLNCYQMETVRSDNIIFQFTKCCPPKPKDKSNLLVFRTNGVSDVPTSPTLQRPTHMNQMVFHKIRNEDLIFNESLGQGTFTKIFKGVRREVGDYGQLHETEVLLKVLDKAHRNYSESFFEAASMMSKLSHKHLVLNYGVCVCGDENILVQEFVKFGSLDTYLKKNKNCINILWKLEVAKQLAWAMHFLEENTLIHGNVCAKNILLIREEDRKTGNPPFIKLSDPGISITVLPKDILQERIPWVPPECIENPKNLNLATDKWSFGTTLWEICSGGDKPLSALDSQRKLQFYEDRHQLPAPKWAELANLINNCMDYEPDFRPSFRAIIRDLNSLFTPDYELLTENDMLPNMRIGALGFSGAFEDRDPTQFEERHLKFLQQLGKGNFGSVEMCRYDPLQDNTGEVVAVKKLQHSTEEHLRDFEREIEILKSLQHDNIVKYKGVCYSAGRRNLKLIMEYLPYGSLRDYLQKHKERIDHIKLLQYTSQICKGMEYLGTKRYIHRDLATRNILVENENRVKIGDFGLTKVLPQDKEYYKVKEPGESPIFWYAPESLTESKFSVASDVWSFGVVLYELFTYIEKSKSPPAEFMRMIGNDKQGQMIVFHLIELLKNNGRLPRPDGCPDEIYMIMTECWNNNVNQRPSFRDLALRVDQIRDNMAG
assay endpoint: EC50 (nM)
Form entry: value (nM) — number only.

CNc1cc(Nc2nccc3nc(-c4c(Cl)cccc4Cl)[nH]c23)ncn1	640
Cc1nccc(Nc2nccc3nc(-c4c(Cl)cccc4Cl)[nH]c23)n1	10000
N#Cc1cc(F)c(C(=O)Nc2ccnc(NC(=O)[C@H]3C[C@H]3F)c2)c(Cl)c1	2250

Ask | Reported EC50, compound `Cc1cc(Nc2nccc3nc(-c4c(Cl)cccc4Cl)[nH]c23)ncn1` : ____
Reply | 1900

###

In this section we review reported Ratio Ki values for a set of compounds.
species: Homo sapiens; assay: Selectivity ratio of Ki for JAK2 (unknown origin) to Ki for TYK2 (unknown origin)
Lab note: jot the number down without any unit.

Consider the reported Ratio Ki for these compounds:
O=C(Nc1nccc2cc(-c3c(Cl)cccc3Cl)sc12)C1CC1	7.5
Cc1cc(Nc2nccc3nc(-c4c(Cl)cccc4Cl)[nH]c23)ncn1	52

Ask | Requested read-out: Ratio Ki. Entry: `CN(C)c1cc(Nc2nccc3nc(-c4c(Cl)cccc4Cl)[nH]c23)ncn1`
Reply | 56

Ask | // query Ratio Ki value for entry `N#Cc1ccnc(Nc2nccc3nc(-c4c(Cl)cccc4Cl)[nH]c23)c1`
Reply | 133

Ask | Look at this compound and give its reported Ratio Ki. `Clc1cccc(Cl)c1-c1nc2ccnc(Nc3ccncn3)c2[nH]1`
Reply | 158

The reported measurements were obtained from ChEMBL document CHEMBL4043190.
